Hi there, I'd appreciate the recorded apparent KD of K4 kissing-loop reporter for every entry that follows.
Tested on: K4 kissing-loop RNA reporter;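 also: bound reporter read as fluorescence of individual clusters on recovered sequencing chips by microscopy, with normalized cluster intensities fitted with a binding model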
runDescription: apparent KD of K4 kissing-loop reporter; higher = weaker reporter binding
setupConditions: Eterna round: R107; input ligand: tryptophan 2.4 mM
Reply numerically in nM, unit not repeated.

Data request: # input sequence: UGUCAUUGGUCGGCCGCCACUUCGUGUGGAGUGAUGUUUUGUAGGUUGUGUUGAAAGGUAUGGUGAAGGACCGGGACCGAUGACU [FiskerMod 20 - Jieux - Same State - Tryptophan B] ; wanted: its apparent KD of K4 kissing-loop reporter
Data returned: 525

Data request: # input sequence: AAGCAGUCACUCGUAUCCAUCGAAGAUGGUCGAGGACCGGUACGGCCGCCACUCGGAGUGAUGUUCCGAAGACUGCAAAAUAAAA [#SwitchBubble 13] ; wanted: its apparent KD of K4 kissing-loop reporter
Data returned: 348

Data request: # input sequence: UCACGAGUGAUGUUCGUCGCAAUCACCGAAGGAGCGGGCGAAAGCCCAGGUAGGUCGCGGUAGAAUAAUGAUUUUAUUCGAUUGC [Same State Arginine A GF 26] ; wanted: its apparent KD of K4 kissing-loop reporter
Data returned: 568

---

Tested on: MS2 coat protein
runDescription: apparent KD of MS2 coat protein; designed switch direction (-1 OFF switch, 1 ON switch): -1; higher = weaker reporter binding
setupConditions: Eterna round: R95; input ligand: microRNA oligo, concentration not stated
Lab note: compare apparent KD of MS2 coat protein against 30 nM. Equal or greater, write YES. Smaller, write NO.

Data request: Could you tell me if the measured apparent KD of MS2 coat protein of CUCAUGUGAGGAUAUGUGAUCAACCUUCUAUAUAGAUGAUGACAGAAGGCACAUGAGGAUCACCCAUGUAGAUC [Ex4 - 3 - 19] (puzzle: Exclusion 4) reaches 30 nM or more?
Data returned: YES

Data request: Could you tell me if the measured apparent KD of MS2 coat protein of CUUUUGUGAGGAUAUCAGUAGUAAAUAAAUAAAAUUAAUACUGAGAAGGCACAUGAGGAUCACCCAUGUUCCUC [Mat - Exclusion 4 - Mod of Salish - D63] (puzzle: Exclusion 4) reaches 30 nM or more?
Data returned: YES

Data request: Could you tell me if the measured apparent KD of MS2 coat protein of GAGUGACAUGAGGAUCACCCAUGUGAGGAUAUCGGACGGACCAAAUUAACAACCACCGCGAGAAGGCACAUCGG [Exclusion 1 V21] (puzzle: Exclusion 1) reaches 30 nM or more?
Data returned: YES

Data request: Could you tell me if the measured apparent KD of MS2 coat protein of CUAGCUUCGGCUAGUACAAGCUUUUUGCUCGUCUUAUUAACAUGAGGAUCACCCAUGUUAAUGAGACCUCAUGUAUU [Sensor v3 - turn-off variant 2 - 9] (puzzle: Sensor v3, turn-off variant 2) reaches 30 nM or more?
Data returned: NO

Data request: Could you tell me if the measured apparent KD of MS2 coat protein of CGGGAGGGACAAGCUUUUUGCACGUCUGUUAUUGAUGCUACAUGAGGAUCACCCAUGUUUAAGAUGUGUGAGGAUGG [JR_SV3TOV2_Sub053] (puzzle: Sensor v3, turn-off variant 2) reaches 30 nM or more?
Data returned: YES
